# Experimental Details: Qualitative solubility of RK-33 in various solubilizers
# Format: physicochemical
# Stated Conditions: organic solvent or mixture, thermodynamic from solid; solvent DMA
Reported Property: solubility

Consider COc1ccc(Cn2c3ncnc4c(ncn4Cc4ccc(OC)cc4)c-3nc2=O)cc1 [RK-33] . Its measured solubility is > 100 mg/mL

====

# Experimental Details: Qualitative solubility of RK-33 in various solubilizers
# Format: physicochemical
# Stated Conditions: simulated gastric fluid, thermodynamic from solid; solvent Water (pH 1.6)
# Method: The degree of solubility of RK-33 in various solubilizers were tested. RK-33 was added to the solubilizer and observed for formation of homogenous molecular dispersion and physical appearance.
Reported Property: solubility

Consider COc1ccc(Cn2c3ncnc4c(ncn4Cc4ccc(OC)cc4)c-3nc2=O)cc1 [RK-33] . Its measured solubility is < 1000 µg/mL

====

# Experimental Details: Qualitative solubility of RK-33 in various solubilizers
# Type: physicochemical
# Stated Conditions: oil or lipid, thermodynamic from solid; solvent Miglyol 810
Reported Property: solubility

Consider `COc1ccc(Cn2c3ncnc4c(ncn4Cc4ccc(OC)cc4)c-3nc2=O)cc1` . Its measured solubility is < 1000 µg/mL

====

# Experimental Details: Qualitative solubility of RK-33 in various solubilizers
# Assay type: physicochemical
# Stated Conditions: aqueous buffer, thermodynamic from solid; solvent Water (pH 8)
Reported Property: solubility

Consider `COc1ccc(Cn2c3ncnc4c(ncn4Cc4ccc(OC)cc4)c-3nc2=O)cc1` . Its measured solubility is < 1000 µg/mL

====

# Experimental Details: Qualitative solubility of RK-33 in various solubilizers
# Assay type: physicochemical
# Stated Conditions: organic solvent or mixture, thermodynamic from solid; solvent PEG 400
Reported Property: solubility

Consider `COc1ccc(Cn2c3ncnc4c(ncn4Cc4ccc(OC)cc4)c-3nc2=O)cc1` . Its measured solubility is 5000 to 10000 µg/mL

====

# Experimental Details: Qualitative solubility of RK-33 in various solubilizers
# Format: physicochemical
# Stated Conditions: organic solvent or mixture, thermodynamic from solid; solvent NMP
Reported Property: solubility

Consider COc1ccc(Cn2c3ncnc4c(ncn4Cc4ccc(OC)cc4)c-3nc2=O)cc1 [RK-33] . Its measured solubility is > 100 mg/mL

====

# Experimental Details: Qualitative solubility of RK-33 in various solubilizers
# Type: physicochemical
# Stated Conditions: organic solvent or mixture, thermodynamic from solid; solvent Benzyl alcohol
Reported Property: solubility

Consider COc1ccc(Cn2c3ncnc4c(ncn4Cc4ccc(OC)cc4)c-3nc2=O)cc1 [RK-33] . Its measured solubility is > 250 mg/mL

====

# Experimental Details: Qualitative solubility of RK-33 in various solubilizers
# Type: physicochemical
# Stated Conditions: aqueous buffer, thermodynamic from solid; solvent Water (pH 10)
Reported Property: solubility

Consider COc1ccc(Cn2c3ncnc4c(ncn4Cc4ccc(OC)cc4)c-3nc2=O)cc1 [RK-33] . Its measured solubility is < 1000 µg/mL

====

# Experimental Details: Qualitative solubility of RK-33 in various solubilizers
# Type: physicochemical
# Stated Conditions: organic solvent or mixture, thermodynamic from solid; solvent PEG 200
Reported Property: solubility

Consider COc1ccc(Cn2c3ncnc4c(ncn4Cc4ccc(OC)cc4)c-3nc2=O)cc1 [RK-33] . Its measured solubility is ~12 mg/mL

====

# Experimental Details: Qualitative solubility of RK-33 in various solubilizers
# Format: physicochemical
# Stated Conditions: oil or lipid, thermodynamic from solid; solvent Gelucire 44/14
# Description: The degree of solubility of RK-33 in various solubilizers were tested. RK-33 was added to the solubilizer and observed for formation of homogenous molecular dispersion and physical appearance.
Reported Property: solubility

Consider `COc1ccc(Cn2c3ncnc4c(ncn4Cc4ccc(OC)cc4)c-3nc2=O)cc1` . Its measured solubility is < 1000 µg/mL

====

# Experimental Details: Qualitative solubility of RK-33 in various solubilizers
# Type: physicochemical
# Stated Conditions: thermodynamic from solid; solvent Water
# Procedure: The degree of solubility of RK-33 in various solubilizers were tested. RK-33 was added to the solubilizer and observed for formation of homogenous molecular dispersion and physical appearance.
Reported Property: solubility

Consider COc1ccc(Cn2c3ncnc4c(ncn4Cc4ccc(OC)cc4)c-3nc2=O)cc1 [RK-33] . Its measured solubility is < 1000 µg/mL

====

# Experimental Details: Qualitative solubility of RK-33 in various solubilizers
# Assay type: physicochemical
# Stated Conditions: oil or lipid, thermodynamic from solid; solvent Olive oil
Reported Property: solubility

Consider `COc1ccc(Cn2c3ncnc4c(ncn4Cc4ccc(OC)cc4)c-3nc2=O)cc1` . Its measured solubility is < 1000 µg/mL

====

# Experimental Details: Qualitative solubility of RK-33 in various solubilizers
# Type: physicochemical
# Stated Conditions: oil or lipid, thermodynamic from solid; solvent Oleic acid
# Protocol: The degree of solubility of RK-33 in various solubilizers were tested. RK-33 was added to the solubilizer and observed for formation of homogenous molecular dispersion and physical appearance.
Reported Property: solubility

Consider `COc1ccc(Cn2c3ncnc4c(ncn4Cc4ccc(OC)cc4)c-3nc2=O)cc1` . Its measured solubility is < 1000 µg/mL

====

# Experimental Details: Qualitative solubility of RK-33 in various solubilizers
# Assay type: physicochemical
# Stated Conditions: organic solvent or mixture, thermodynamic from solid; solvent PG
Reported Property: solubility

Consider COc1ccc(Cn2c3ncnc4c(ncn4Cc4ccc(OC)cc4)c-3nc2=O)cc1 [RK-33] . Its measured solubility is 1000 to 5000 µg/mL

====

# Experimental Details: Qualitative solubility of RK-33 in various solubilizers
# Type: physicochemical
# Stated Conditions: oil or lipid, thermodynamic from solid; solvent Corn oil
Reported Property: solubility

Consider `COc1ccc(Cn2c3ncnc4c(ncn4Cc4ccc(OC)cc4)c-3nc2=O)cc1` . Its measured solubility is < 1 mg/mL
